# TGT: COX-1 (Homo sapiens)
# Sequence (P23219 24-599): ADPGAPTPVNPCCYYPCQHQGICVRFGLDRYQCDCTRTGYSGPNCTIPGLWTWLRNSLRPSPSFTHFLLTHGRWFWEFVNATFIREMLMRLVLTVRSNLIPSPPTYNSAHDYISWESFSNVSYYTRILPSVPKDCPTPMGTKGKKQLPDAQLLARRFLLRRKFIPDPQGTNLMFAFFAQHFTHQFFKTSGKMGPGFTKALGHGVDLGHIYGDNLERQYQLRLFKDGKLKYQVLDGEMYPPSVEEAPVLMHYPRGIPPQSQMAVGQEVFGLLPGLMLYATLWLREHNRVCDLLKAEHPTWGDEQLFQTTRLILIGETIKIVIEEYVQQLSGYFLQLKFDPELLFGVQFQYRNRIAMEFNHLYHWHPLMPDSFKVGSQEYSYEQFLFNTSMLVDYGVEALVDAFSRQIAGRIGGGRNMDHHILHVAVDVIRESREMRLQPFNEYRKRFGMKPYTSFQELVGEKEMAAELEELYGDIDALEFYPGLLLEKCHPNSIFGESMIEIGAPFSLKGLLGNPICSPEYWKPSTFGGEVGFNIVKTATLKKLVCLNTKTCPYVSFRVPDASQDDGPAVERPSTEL
# EXPERIMENT_SUMMARY: Assay of COX-1 activity from U937 cell microsomes
# Format: biochemical
# Set-up: endogenous in cells; host or cells: U937 cells, 100,000 x g microsomal pellet
# CONDITION_DESCRIPTION: PGE2, read-out: COX-1 (IC50 μM) U-937
EXPERIMENTAL_READOUT: IC50

Exercise: Need IC50 of "CC(C)Sc1c(-c2ccc(S(C)(=O)=O)cc2)cc(C(F)(F)F)oc1=O" , thanks.
Key: >33 µM

Others:
Exercise: Need IC50 of "Cc1cc(-c2ccc(S(C)(=O)=O)cc2)c(-c2ccccc2)c(=O)o1" , thanks.
Key: 1 µM

Exercise: Need IC50 of "CS(=O)(=O)c1ccc(-c2cc(C(F)(F)F)oc(=O)c2Sc2ccccc2)cc1" , thanks.
Key: 14 µM

Exercise: Need IC50 of "Cc1cc(-c2ccc(S(C)(=O)=O)cc2)c(Oc2ccccc2)c(=O)o1" , thanks.
Key: 1 to 3 µM

Exercise: Need IC50 of "CS(=O)(=O)c1ccc(-c2cc(C(F)F)oc(=O)c2-c2ccccc2)cc1" , thanks.
Key: 0.3 to 1 µM

Exercise: Need IC50 of "Cc1cc(-c2ccc(S(C)(=O)=O)cc2)c(-c2ccc(F)cc2)c(=O)o1" , thanks.
Key: 0.3 to 1 µM

* * *

# TGT: COX-2 (Homo sapiens, UniProt P35354)
# Sequence (P35354 18-604): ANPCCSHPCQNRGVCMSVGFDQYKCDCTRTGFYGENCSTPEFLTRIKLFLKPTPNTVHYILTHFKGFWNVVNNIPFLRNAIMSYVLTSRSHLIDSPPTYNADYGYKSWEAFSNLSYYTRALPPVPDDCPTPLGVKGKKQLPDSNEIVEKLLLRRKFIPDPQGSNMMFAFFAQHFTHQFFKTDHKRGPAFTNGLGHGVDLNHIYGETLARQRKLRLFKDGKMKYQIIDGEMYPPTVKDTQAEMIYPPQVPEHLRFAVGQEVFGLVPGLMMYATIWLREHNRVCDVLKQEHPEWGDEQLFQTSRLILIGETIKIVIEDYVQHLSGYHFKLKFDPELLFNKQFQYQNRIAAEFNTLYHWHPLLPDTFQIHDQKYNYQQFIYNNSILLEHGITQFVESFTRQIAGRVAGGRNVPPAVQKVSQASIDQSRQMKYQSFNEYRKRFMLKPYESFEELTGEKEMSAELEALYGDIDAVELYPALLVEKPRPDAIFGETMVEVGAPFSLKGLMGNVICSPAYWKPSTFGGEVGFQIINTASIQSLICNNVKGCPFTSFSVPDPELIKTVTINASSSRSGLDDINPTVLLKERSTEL
# EXPERIMENT_SUMMARY: Human whole blood assay, COX-2 (LPS-induced PGE2 production)
# Type: cell-based
# Parameters: endogenous in cells; host or cells: fresh heparinized human whole blood from volunteers, incubated with LPS
# CONDITION_DESCRIPTION: LPS-induced PGE2, 24 hours at 37° C., read-out: COX-2 (IC50 μM) HWB
EXPERIMENTAL_READOUT: IC50 (µM)

Some compounds with known IC50 results, for comparison:
Exercise: Test system COX-2 (Homo sapiens, UniProt P35354); read-out IC50; what value for CS(=O)(=O)c1ccc(-c2ccoc(=O)c2-c2ccccc2)cc1 [Example 1] ?
Key: 2.6

Exercise: Test system COX-2 (Homo sapiens, UniProt P35354); read-out IC50; what value for Cc1cc(-c2ccc(S(C)(=O)=O)cc2)c(-c2cccnc2)c(=O)o1 [Example 9] ?
Key: 0.6

A. CS(=O)(=O)c1ccc(-c2cc(C(F)F)oc(=O)c2-c2ccccc2)cc1 [Example 5]
B. Cc1cc(-c2ccc(S(C)(=O)=O)cc2)c(Sc2ccccc2)c(=O)o1 [Example 7]
C. CS(=O)(=O)c1ccc(-c2cc(CC(F)(F)F)oc(=O)c2-c2ccccc2)cc1 [Example 13]
D. CS(=O)(=O)c1ccc(-c2cc(CF)oc(=O)c2-c2ccccc2)cc1 [Example 6]
Exercise: hey, can you rank those compounds up there by IC50? biggest number first please Sort and list the labels as requested.
Key: C, D, A, B

* * *

# TGT: COX-2 (Homo sapiens)
# EXPERIMENT_SUMMARY: Whole cell assay for COX-2 using CHO[hCOX-2] transfected cell line
# Type: cell-based
# Set-up: expressed in transfected cells; host or cells: CHO cells stably transfected with pCDNAIII (CHO[hCOX-2])
# CONDITION_DESCRIPTION: CHO[hCOX-2] cells, PGE2 synthesis, 10 μM AA
EXPERIMENTAL_READOUT: IC50 (µM)

Exercise: Test system COX-2 (Homo sapiens); read-out IC50; what value for "CS(=O)(=O)c1ccc(-c2cc(CF)oc(=O)c2-c2ccccc2)cc1" ?
Key: 1.1

Exercise: Test system COX-2 (Homo sapiens); read-out IC50; what value for "CS(=O)(=O)c1ccc(-c2ccoc(=O)c2-c2ccccc2)cc1" ?
Key: 0.12

I. Cc1cc(-c2ccc(S(C)(=O)=O)cc2)c(Sc2ccccc2)c(=O)o1
II. Cc1cc(-c2ccc(S(C)(=O)=O)cc2)c(-c2ccc(F)cc2)c(=O)o1
III. Cc1cc(-c2ccc(S(C)(=O)=O)cc2)c(SC(C)C)c(=O)o1
Exercise: hey, can you rank those molecules up there by IC50? biggest number first please Sort and list the labels as requested.
Key: III, II, I
(III: 0.8 µM, II: 0.4 µM, I: 0.14 µM)

* * *

Reported IC50 values for a set of compounds
# TGT: COX-1 (Homo sapiens)
# EXPERIMENT_SUMMARY: Assay of COX-1 activity from U937 cell microsomes
# Assay type: biochemical
# Design: endogenous in cells; host or cells: U937 cells, 100,000 x g microsomal pellet
# CONDITION_DESCRIPTION: PGE2, read-out: COX-1 (IC50 μM) U-937

Some compounds with known IC50 results, for comparison:
Exercise: Test system COX-1 (Homo sapiens); read-out IC50; what value for "Cc1cc(-c2ccc(S(C)(=O)=O)cc2)c(Sc2ccccc2)c(=O)o1" ?
Key: 1 to 3 µM

Exercise: Test system COX-1 (Homo sapiens); read-out IC50; what value for "Cc1cc(-c2ccc(S(C)(=O)=O)cc2)c(-c2cccc(F)c2)c(=O)o1" ?
Key: 3 to 10 µM

Exercise: Test system COX-1 (Homo sapiens); read-out IC50; what value for "CS(=O)(=O)c1ccc(-c2ccoc(=O)c2-c2ccccc2)cc1" ?
Key: > 10 µM

With those in mind, consider the next compound.
Exercise: Test system COX-1 (Homo sapiens); read-out IC50; what value for "CS(=O)(=O)c1ccc(-c2cc(CF)oc(=O)c2-c2ccccc2)cc1" ?
Key: ~1 µM

* * *

# TGT: COX-2 (Homo sapiens, UniProt P35354)
# EXPERIMENT_SUMMARY: Human whole blood assay, COX-2 (LPS-induced PGE2 production)
# Format: cell-based
# Parameters: endogenous in cells; host or cells: fresh heparinized human whole blood from volunteers, incubated with LPS
# CONDITION_DESCRIPTION: LPS-induced PGE2, 24 hours at 37° C., read-out: COX-2 (IC50 μM) HWB
EXPERIMENTAL_READOUT: IC50

Some compounds with known IC50 results, for comparison:
Exercise: Need IC50 of "CC(C)Sc1c(-c2ccc(S(C)(=O)=O)cc2)cc(C(F)(F)F)oc1=O" , thanks.
Key: 1 to 3 µM

Exercise: Need IC50 of "Cc1cc(-c2ccc(S(C)(=O)=O)cc2)c(Oc2ccccc2)c(=O)o1" , thanks.
Key: < 0.4 µM

With those in mind, consider the next compound.
Exercise: Need IC50 of "Cc1cc(-c2ccc(S(C)(=O)=O)cc2)c(-c2cccc(F)c2)c(=O)o1" , thanks.
Key: < 0.4 µM

* * *

# TGT: COX-1 (Homo sapiens)
# EXPERIMENT_SUMMARY: Assay of COX-1 activity from U937 cell microsomes
# Assay type: biochemical
# Parameters: endogenous in cells; host or cells: U937 cells, 100,000 x g microsomal pellet
# CONDITION_DESCRIPTION: PGE2, read-out: COX-1 (IC50 μM) U-937
Reported IC50 values for a set of molecules

Exercise: Need IC50 of Cc1cc(-c2ccc(S(C)(=O)=O)cc2)c(SC(C)C)c(=O)o1 [Example 10] , thanks.
Key: > 10 µM

Exercise: Need IC50 of Cc1cc(-c2ccc(S(C)(=O)=O)cc2)c(CCC(C)(C)O)c(=O)o1 [Example 14] , thanks.
Key: > 10 µM

Others:
Exercise: Need IC50 of Cc1cc(-c2ccc(S(C)(=O)=O)cc2)c(-c2cccnc2)c(=O)o1 [Example 9] , thanks.
Key: 0.3 to 1 µM

* * *

# TGT: COX-2 (Homo sapiens)
# EXPERIMENT_SUMMARY: Human whole blood assay, COX-2 (LPS-induced PGE2 production)
# Assay type: cell-based
# Design: endogenous in cells; host or cells: fresh heparinized human whole blood from volunteers, incubated with LPS
# CONDITION_DESCRIPTION: LPS-induced PGE2, 24 hours at 37° C., read-out: COX-2 (IC50 μM) HWB
Reported IC50 values for a set of molecules

Some molecules with known IC50 results, for comparison:
Exercise: Need IC50 of CS(=O)(=O)c1ccc(-c2cc(C(F)(F)F)oc(=O)c2Sc2ccccc2)cc1 [Example 11] , thanks.
Key: 0.3 to 1 µM

Exercise: Need IC50 of Cc1cc(-c2ccc(S(C)(=O)=O)cc2)c(-c2ccccc2)c(=O)o1 [Example 4] , thanks.
Key: < 0.4 µM

Others:
Exercise: Need IC50 of Cc1cc(-c2ccc(S(C)(=O)=O)cc2)c(-c2ccc(F)cc2)c(=O)o1 [Example 2] , thanks.
Key: < 0.4 µM
